Target: T1, IL-18 receptor (IL-18Rα/IL-18Rβ) on cells (HEK-Blue IL18R reporter cells, NK-92, KG-1) (human, UniProt Q13478 19-541; O95256 20-599)
T1 sequence (looked up) 1: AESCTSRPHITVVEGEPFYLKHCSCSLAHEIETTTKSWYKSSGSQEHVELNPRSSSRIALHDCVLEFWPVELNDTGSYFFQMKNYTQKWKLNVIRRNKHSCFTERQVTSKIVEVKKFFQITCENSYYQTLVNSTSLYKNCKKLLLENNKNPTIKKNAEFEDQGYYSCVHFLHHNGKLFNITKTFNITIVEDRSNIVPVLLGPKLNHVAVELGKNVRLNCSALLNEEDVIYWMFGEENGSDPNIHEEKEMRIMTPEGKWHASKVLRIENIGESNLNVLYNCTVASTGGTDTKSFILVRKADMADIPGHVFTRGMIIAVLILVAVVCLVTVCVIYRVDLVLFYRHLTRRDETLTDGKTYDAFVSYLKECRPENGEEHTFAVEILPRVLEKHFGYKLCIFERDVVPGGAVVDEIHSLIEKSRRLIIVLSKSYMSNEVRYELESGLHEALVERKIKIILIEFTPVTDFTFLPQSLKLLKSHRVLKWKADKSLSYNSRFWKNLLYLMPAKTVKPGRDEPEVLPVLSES
T1 sequence (looked up) 2: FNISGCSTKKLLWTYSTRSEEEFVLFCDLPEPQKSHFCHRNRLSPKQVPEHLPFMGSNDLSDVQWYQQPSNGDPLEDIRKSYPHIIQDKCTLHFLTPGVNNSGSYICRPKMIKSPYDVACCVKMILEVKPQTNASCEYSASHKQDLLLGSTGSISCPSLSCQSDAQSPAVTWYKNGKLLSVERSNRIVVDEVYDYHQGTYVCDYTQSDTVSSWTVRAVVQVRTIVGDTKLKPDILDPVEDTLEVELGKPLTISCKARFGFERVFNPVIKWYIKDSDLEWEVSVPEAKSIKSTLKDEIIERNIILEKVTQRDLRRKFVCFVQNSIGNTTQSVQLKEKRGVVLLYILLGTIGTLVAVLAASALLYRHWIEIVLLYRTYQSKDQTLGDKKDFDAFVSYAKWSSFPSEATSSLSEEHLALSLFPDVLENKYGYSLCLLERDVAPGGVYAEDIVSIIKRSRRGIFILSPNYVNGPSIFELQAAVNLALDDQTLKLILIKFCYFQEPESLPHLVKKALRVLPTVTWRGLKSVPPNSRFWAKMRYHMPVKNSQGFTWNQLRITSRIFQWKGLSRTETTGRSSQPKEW
Assay: cell-based or functional assay
Catalogue of EC50, IFNγ stimulation, NK92 cells readings, one per entry.
Numbers only; they are read as nM.

Example entries and their recorded answers appear below.
binder | readout.name | value.measured
IL-18 polypeptide C167 (ligand, also called V11I, C38A, C76A, S105I, C127A) YFGKLESKLSIIRNLNDQVLFIDQGNRPLFEDMTDSDARDNAPRTIFIISMYKDSQPRGMAVTISVKCEKISTLSAENKIISFKEMNPPDNIKDTKSDIIFFQRIVPGHDNKMQFESSSYEGYFLAAEKERDLFKLILKKEDELGDRSIMFTVQNED | EC50, IFNγ stimulation, NK92 cells | 0.103
IL-18 polypeptide C154 (ligand, also called V11I, E31A, D37A, C38A, K53A, C76A, C127A) YFGKLESKLSIIRNLNDQVLFIDQGNRPLFADMTDSAARDNAPRTIFIISMYADSQPRGMAVTISVKCEKISTLSAENKIISFKEMNPPDNIKDTKSDIIFFQRSVPGHDNKMQFESSSYEGYFLAAEKERDLFKLILKKEDELGDRSIMFTVQNED | EC50, IFNγ stimulation, NK92 cells | 0.062

Name the reported EC50, IFNγ stimulation, NK92 cells value associated with the binder IL-18 polypeptide of SEQ ID NO: 43 (E06K, K53A, S55A, Y01G) (ligand) GFGKLKSKLSVIRNLNDQVLFIDQGNRPLFEDMTDSDCRDNAPRTIFIISMYADAQPRGMAVTISVKCEKISTLSCENKIISFKEMNPPDNIKDTKSDIIFFQRSVPGHDNKMQFESSSYEGYFLACEKERDLFKLILKKEDELGDRSIMFTVQNED
6.12
